- experiment: MTD dose stated for CPT comparators
- assayConditions: mouse, in vivo, intravenous
measuredParameter: MTD (mg/kg)
Numbers only, in mg/kg.

Lookup: What value of MTD has been reported for the following molecule? CC[C@@]1(O)C(=O)OCc2c1cc1n(c2=O)Cc2cc3ccccc3nc2-1 [Free CPT, Camptothecin]
Found: 5

---

- experiment: in vivo
- assayConditions: B6129SF1/J, mouse, iv
measuredParameter: half-life (min)
Answers are plain numbers, in min.

Lookup: Which half-life is listed for Nc1ccn([C@@H]2O[C@H](CO)[C@@H](O)C2(F)F)c(=O)n1 ?
Found: 23.4
